tested on: Christensenella sp. MNH04863; test: Antibiotic susceptibility testing by disk diffusion method; assay type: cell-based
value-kind: Susceptibility of Christensenella sp. MNH04863 to the antibiotic

compound="CC[C@H]1OC(=O)[C@H](C)[C@@H](O[C@H]2C[C@@](C)(OC)[C@@H](O)[C@H](C)O2)[C@H](C)[C@@H](O[C@@H]2O[C@H](C)C[C@H](N(C)C)[C@H]2O)[C@](C)(O)C[C@@H](C)C(=O)[C@H](C)[C@@H](O)[C@]1(C)O [Erythromycin (E), Erythromycin]" result_value=sensitive
compound=O=C(N[C@H](CO)[C@H](O)c1ccc([N+](=O)[O-])cc1)C(Cl)Cl result_value=sensitive

---

test system: Christensenella sp. MNH04863; assay: Antibiotic susceptibility testing by disk diffusion method; assay type: cell-based; settings: against Christensenella sp. MNH04863
value-kind: Inhibition Zone Diameter (mm)
Note: unit mm is implicit; provide only the numeric part.

Some compounds with known Inhibition Zone Diameter results, for comparison:
compound=CC1(C)S[C@@H]2[C@H](NC(=O)[C@H](N)c3ccccc3)C(=O)N2[C@H]1C(=O)O target_system="Christensenella sp. MNH04863" value_kind="Inhibition Zone Diameter" units_of_measure=mm result_value=0
compound="CC[C@H]1OC(=O)[C@H](C)[C@@H](O[C@H]2C[C@@](C)(OC)[C@@H](O)[C@H](C)O2)[C@H](C)[C@@H](O[C@@H]2O[C@H](C)C[C@H](N(C)C)[C@H]2O)[C@](C)(O)C[C@@H](C)C(=O)[C@H](C)[C@@H](O)[C@]1(C)O [Erythromycin (E), Erythromycin]" target_system="Christensenella sp. MNH04863" value_kind="Inhibition Zone Diameter" units_of_measure=mm result_value=16.82
compound=O=C(N[C@H](CO)[C@H](O)c1ccc([N+](=O)[O-])cc1)C(Cl)Cl target_system="Christensenella sp. MNH04863" value_kind="Inhibition Zone Diameter" units_of_measure=mm result_value=38.88

Problem: Dear colleague, I am looking for the recorded Inhibition Zone Diameter of the following compound: "CO/N=C(\C(=O)N[C@@H]1C(=O)N2C(C(=O)O)=C(CSc3nc(=O)c(=O)[nH]n3C)CS[C@H]12)c1csc(N)n1"
Solution: 37.32

Problem: Dear colleague, I am looking for the recorded Inhibition Zone Diameter of the following compound: "O=C(O)c1cn(C2CC2)c2cc(N3CCNCC3)c(F)cc2c1=O"
Solution: 0

Problem: Dear colleague, I am looking for the recorded Inhibition Zone Diameter of the following compound: "CN(C)[C@@H]1C(O)=C(C(N)=O)C(=O)[C@@]2(O)C(O)=C3C(=O)c4c(O)cccc4[C@@](C)(O)[C@H]3C[C@@H]12"
Solution: 46.11

Problem: Dear colleague, I am looking for the recorded Inhibition Zone Diameter of the following compound: "CCC[C@@H]1C[C@@H](C(=O)N[C@@H]([C@H]2O[C@H](SC)[C@H](O)[C@@H](O)[C@H]2O)[C@@H](C)O)N(C)C1"
Solution: 29.86
